Where do these numbers come from? They come from paper PMC6271009.

biological target: DYRK1B (Homo sapiens, UniProt Q9Y463); construct: Purified recombinant kinase was incubated with serial 3-fold dilutions of test compounds; assay: DYRK1B kinase assay, Reaction Biology Corporation HotSpot technology (33P ATP); conditions: purified recombinant kinase, 10 µM ATP, 120 min, room temperature
Sequence (Q9Y463 whole entry): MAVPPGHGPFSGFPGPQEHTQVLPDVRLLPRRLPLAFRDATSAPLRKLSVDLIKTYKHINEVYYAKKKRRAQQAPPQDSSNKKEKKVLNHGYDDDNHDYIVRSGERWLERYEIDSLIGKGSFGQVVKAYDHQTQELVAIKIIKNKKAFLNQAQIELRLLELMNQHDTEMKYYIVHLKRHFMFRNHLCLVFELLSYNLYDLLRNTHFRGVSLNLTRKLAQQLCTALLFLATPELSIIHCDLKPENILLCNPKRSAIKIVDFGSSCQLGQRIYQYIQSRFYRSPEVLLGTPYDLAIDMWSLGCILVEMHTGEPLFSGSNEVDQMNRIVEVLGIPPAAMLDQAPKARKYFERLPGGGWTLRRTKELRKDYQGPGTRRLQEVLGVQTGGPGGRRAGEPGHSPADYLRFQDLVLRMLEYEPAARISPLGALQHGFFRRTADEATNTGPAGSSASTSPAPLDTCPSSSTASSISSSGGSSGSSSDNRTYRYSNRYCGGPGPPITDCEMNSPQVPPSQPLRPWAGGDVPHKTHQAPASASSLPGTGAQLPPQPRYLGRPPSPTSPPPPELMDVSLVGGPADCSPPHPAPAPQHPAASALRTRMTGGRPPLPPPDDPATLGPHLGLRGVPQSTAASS
The entries below are paired with their reported pIC50.
Quick note: pIC50 means taking -log10 of the concentration in moles per liter.

Input line: Tell me measured pIC50 for COC(=N)c1nc2ccc3ncnc(Nc4ccc(C#N)cc4)c3c2s1 please.
Output line: 8.11

Input line: Determine from records and report pIC50 for CC(C)OC(=N)c1nc2ccc3ncnc(Nc4ccc5c(c4)OCO5)c3c2s1 [Compound 12b]
Output line: 6.66

Input line: Quick one: give measured pIC50 for N=C(OCc1ccccc1)c1nc2ccc3ncnc(Nc4ccc5c(c4)OCO5)c3c2s1 [Compound 12c]
Output line: 7.43

====

biological target: DYRK1A (Homo sapiens); construct: Purified recombinant kinase was incubated with serial 3-fold dilutions of test compounds; assay: DYRK1A kinase assay, Reaction Biology Corporation HotSpot technology (33P ATP); settings: purified recombinant kinase, 10 µM ATP, 120 min, room temperature
Reported Endpoint: IC50 (nM)
# output: bare number, implied unit nM

Some solved entries appear below for comparison.
Molecule	Recorded Measurement
COC(=N)c1nc2ccc3ncnc(Nc4ccc(F)cc4F)c3c2s1 [Compound 8k]	0.94
COC(=N)c1nc2ccc3ncnc(Nc4ccc(C(F)(F)F)cc4)c3c2s1 [Compound 8l]	54.8

Input line: Given COC(=N)c1nc2ccc3ncnc(Nc4cccc(C#N)c4)c3c2s1 [Compound 9f] , respond with its IC50.
Output line: 42.7

Input line: Entry COC(=N)c1nc2ccc3ncnc(Nc4ccc(N(C)C)cc4)c3c2s1 [Compound 9h] needs its IC50 filled in; supply it.
Output line: 35.6

Input line: Identify the reported IC50 for the following entry. COC(=N)c1nc2ccc3ncnc(Nc4ccccc4)c3c2s1 [Compound 9a]
Output line: 1.81

====

biological target: DYRK1A (Homo sapiens, UniProt Q13627); construct: Purified recombinant kinase was incubated with serial 3-fold dilutions of test compounds; assay: DYRK1A kinase assay, Reaction Biology Corporation HotSpot technology (33P ATP); conditions: purified recombinant kinase, 10 µM ATP, 120 min, room temperature
The following molecules are listed with their measured IC50 values.
# output: bare number, implied unit µM

Molecule	Units Text	IC50
CC(C)(C)CNc1ncnc2ccc(-c3ccc4c(c3)OCO4)cc12 [NCGC-00189310, reference compound]	µM	0.0022
COC(=N)c1nc2ccc3ncnc(Nc4ccc(OC)cc4OC)c3c2s1	µM	0.00953
COC(=N)c1nc2ccc3ncnc(Nc4cc(OC)c(OC)c(OC)c4)c3c2s1	µM	0.436
COC(=N)c1nc2ccc3ncnc(Nc4ccc(Br)cc4F)c3c2s1	µM	0.0036
CC(C)OC(=N)c1nc2ccc3ncnc(Nc4ccc5c(c4)OCO5)c3c2s1 [Compound 12b]	µM	0.125
COC(=N)c1nc2ccc3ncnc(Nc4ccc(Cl)c(Cl)c4)c3c2s1	µM	0.0668
COC(=N)c1nc2ccc3ncnc(Nc4ccc(OC)c([N+](=O)[O-])c4)c3c2s1	µM	0.123

Consider the record given below.
Input line: Respond only with IC50 recorded for COC(=N)c1nc2ccc3ncnc(Nc4ccc(C(C)(C)C)cc4)c3c2s1
Output line: 0.039

====

Reported log10(IC50) values for a set of molecules
target: DYRK1B (Homo sapiens); construct: Purified recombinant kinase was incubated with serial 3-fold dilutions of test compounds; assay: DYRK1B kinase assay, Reaction Biology Corporation HotSpot technology (33P ATP); conditions: purified recombinant kinase, 10 µM ATP, 120 min, room temperature
In our notation, the value equals log10 of IC50 in nM.

Below: 3 molecules and their reported log10(IC50).
COC(=N)c1nc2ccc3ncnc(Nc4ccc(OC)cc4OC)c3c2s1 1.05
COC(=N)c1nc2ccc3ncnc(Nc4ccc(C)cc4)c3c2s1 0.45
C#Cc1cccc(Nc2ncnc3ccc4nc(C(=N)OC)sc4c23)c1 1.67

Input line: # return recorded log10(IC50) for entry COC(=N)c1nc2ccc3ncnc(Nc4ccc(N(C)C)cc4)c3c2s1
Output line: 1.81

Input line: Quick one: give measured log10(IC50) for COC(=N)c1nc2ccc3ncnc(Nc4ccc(O)c(F)c4)c3c2s1
Output line: 1.04

Input line: Supply measured log10(IC50) of COC(=N)c1nc2ccc3ncnc(Nc4cccc(C#N)c4)c3c2s1 in your reply.
Output line: 1.86

Input line: Provide measured log10(IC50) value, entry: COC(=N)c1nc2ccc3ncnc(Nc4ccc(OC)c(OC)c4)c3c2s1
Output line: 2.21
